Listed here: items and their measured EC50.
Target: human M4 muscarinic acetylcholine receptor (Homo sapiens)
Construct: expressed in transfected cells; host or cells: CHO-K1
Sequence (P08173 1-479): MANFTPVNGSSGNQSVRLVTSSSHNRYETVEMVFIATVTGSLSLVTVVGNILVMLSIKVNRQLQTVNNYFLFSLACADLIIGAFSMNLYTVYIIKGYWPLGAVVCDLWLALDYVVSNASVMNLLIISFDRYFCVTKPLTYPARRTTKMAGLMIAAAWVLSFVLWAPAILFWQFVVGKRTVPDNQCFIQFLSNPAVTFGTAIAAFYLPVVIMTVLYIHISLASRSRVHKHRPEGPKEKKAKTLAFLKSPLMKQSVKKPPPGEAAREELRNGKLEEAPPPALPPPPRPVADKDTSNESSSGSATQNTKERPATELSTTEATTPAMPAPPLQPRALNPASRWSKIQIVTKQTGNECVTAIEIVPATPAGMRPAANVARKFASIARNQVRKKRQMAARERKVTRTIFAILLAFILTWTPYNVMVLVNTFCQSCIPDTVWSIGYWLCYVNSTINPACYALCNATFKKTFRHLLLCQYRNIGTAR
Test: human FLIPR-based M4 PAM assay (calcium mobilization in CHO-K1 cells with human M4 receptor and Gαqi5)
Format: cell-based
Conditions: inflection point of dose response curve, acetylcholine at 20% of maximum response, FLIPR Tetra, read-out: M4 PAM IP

Any idea what EC50 was measured for Cc1cc(-c2cnn(CC3(C)CCCC3)c2)c(-c2ccc3c(c2)C(=O)N(C)C3)nc1Cl ? 33 nM

----------
Biological target: human M4 muscarinic acetylcholine receptor (Homo sapiens, UniProt P08173)
Construct: expressed in transfected cells; host or cells: CHO-K1
Assay: human FLIPR-based M4 PAM assay (calcium mobilization in CHO-K1 cells with human M4 receptor and Gαqi5)
Format: cell-based
Details: inflection point of dose response curve, acetylcholine at 20% of maximum response, FLIPR Tetra, read-out: M4 PAM IP
Listed here: items and their measured pEC50.
# reply with the number alone; pEC50 is -log10 of concentration in mol/L

// below: answered compounds
>>> measured_result("COCCN1Cc2ccc(-c3nc4c(cc3-c3cnn(CC5(C)CCCC5)c3)CCC4)cc2C1=O")
7.28
>>> measured_result("CC1(Cn2cc(-c3ccc(C#N)nc3-c3cnc4c(c3)C(=O)N(C3CC3)C4)cn2)CCCC1")
7.44
>>> measured_result("Cc1ccc(-c2cnn(CC3(C)CCCC3)c2)c(-c2ccc3c(c2)C(=O)N(C2CC2)C3)n1")
8.00
>>> measured_result("CC1(Cn2cc(-c3cc4c(nc3-c3ccc5c(c3)C(=O)N(CCF)C5)CCC4)cn2)CCCC1")
7.49
>>> measured_result("CN1Cc2ccc(-c3nc(C#N)c(Cl)cc3-c3cnn(CC4(C)CCCC4)c3)cc2C1=O [Example 78]")
7.49

Provide the documented pEC50 with human M4 muscarinic acetylcholine receptor (Homo sapiens, UniProt P08173) as the system for CN1Cc2ccc(-c3ncccc3-c3cnn(CC4CCCC4)c3)cc2C1=O 7.25

Provide the documented pEC50 with human M4 muscarinic acetylcholine receptor (Homo sapiens, UniProt P08173) as the system for O=C1c2cc(-c3ncccc3-c3cnn(CC4CCCC4)c3)ccc2CN1c1ccccc1 7.00

Provide the documented pEC50 with human M4 muscarinic acetylcholine receptor (Homo sapiens, UniProt P08173) as the system for CC1(Cn2cc(-c3cc4c(nc3-c3cnc5c(c3)C(=O)N(CCF)C5)CCC4)cn2)CCCC1 [Example 118A] 7.30

Provide the documented pEC50 with human M4 muscarinic acetylcholine receptor (Homo sapiens, UniProt P08173) as the system for CN1Cc2ccc(-c3nc(C#N)c(Cl)cc3-c3cnn(CC4(C)CCCC4)c3)cc2C1=O [Example 125] 7.59

Provide the documented pEC50 with human M4 muscarinic acetylcholine receptor (Homo sapiens, UniProt P08173) as the system for CNC(=O)C1(N2Cc3ccc(-c4ncccc4-c4cnn(CC5CCCC5)c4)cc3C2=O)CC1 6.44

Provide the documented pEC50 with human M4 muscarinic acetylcholine receptor (Homo sapiens, UniProt P08173) as the system for N#CC1(N2Cc3ccc(-c4ncccc4-c4cnn(CC5CCCC5)c4)cc3C2=O)CC1 6.50

Provide the documented pEC50 with human M4 muscarinic acetylcholine receptor (Homo sapiens, UniProt P08173) as the system for NS(=O)(=O)c1ccc(CCN2Cc3ccc(-c4ncccc4-c4cnn(CC5CCCC5)c4)cc3C2=O)cc1 7.31
